# method: PK of compound of Formula (Ia) after single subcutaneous dose of solution formulations in Wistar Han rats
# Type: in vivo
# conditions: male, Wistar Han, rat, plasma, sc, 50 mg/kg, Wistar Han rats, SC 50 mg/kg, 400 mg/mL solution Z (3.13% poloxamer 188), 2352 h, Mean n = 4
measured_endpoint: concentration at 2352 h (nM)
Please state the figure in nM; there is no need to write the unit.

// returns reported concentration at 2352 h for input CC(C)(C#Cc1ccc(-c2ccc(Cl)c3c(NS(C)(=O)=O)nn(CC(F)(F)F)c23)c([C@H](Cc2cc(F)cc(F)c2)NC(=O)Cn2nc(C(F)(F)F)c3c2C(F)(F)[C@@H]2C[C@H]32)n1)S(C)(=O)=O [compound of Formula (Ia)]
127
